- TESTED SYSTEM: ERα (Homo sapiens, UniProt P03372)
- Sequence (P03372 311-547 limits assumed): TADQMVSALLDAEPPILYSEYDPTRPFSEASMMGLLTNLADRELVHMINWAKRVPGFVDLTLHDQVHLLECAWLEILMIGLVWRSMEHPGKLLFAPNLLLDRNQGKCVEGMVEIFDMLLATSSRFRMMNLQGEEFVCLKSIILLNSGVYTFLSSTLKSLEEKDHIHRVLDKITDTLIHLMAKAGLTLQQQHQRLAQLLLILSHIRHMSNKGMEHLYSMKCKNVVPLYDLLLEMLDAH
- PROTOCOL NOTES: HEK293/GAL4/ERα antagonist assay (luciferase reporter)
- Format: cell-based
- COND: N = 2; 1 nM estradiol; read-out: IC50 (nM), antagonistic effect
PARAMETER MEASURED: IC50 (nM)

> print(dat)
                              smiles.record                       tested.system  parameter.measured  observed
1  FCCCN1CC[C@H](Nc2cnc(C3=C(CC(F)(F)F)CCCc4c3ccc3[nH]nc(F)c43)cn2)C1  ERα (Homo sapiens, UniProt P03372)                IC50     0.075
